Tested on: NCI-H226 lung
PROTOCOL SUMMARY: NCI tumour cell line growth inhibition, 48 h
OUTCOME MEASURE: GI50

Example entries begin here.
- MOLECULE: "Cc1cc(C)c(S(=O)(=O)N(CCc2cccc(Br)c2)Cc2ccc(-c3cccc(S(C)(=O)=O)c3)cc2)c(C)c1"
  GI50: "> 100 µM"
- MOLECULE: "O=C(CCSc1ccnc2c(C(F)(F)F)cccc12)N/N=C/c1cc(Cl)c(Cl)cc1Cl"
  GI50: "17.6 µM"
- MOLECULE: "Nc1nccc2c1ncn2C1OC(CO)C(O)C1O (stereo not given)"
  GI50: "> 100 µM"
- MOLECULE: "CC1(C)CC([P+](c2ccccc2)(c2ccccc2)c2ccccc2)=NN1"
  GI50: "5.53 µM"

Problem: Please give the measured GI50 for this molecule: "CNC1=C(C(=O)OC)SC(c2ccccc2)(c2ccccc2)SC1"
Result: > 100 µM

* * *

System: SR leukemia
PROTOCOL SUMMARY: NCI tumour cell line growth inhibition, 48 h
OUTCOME MEASURE: GI50

Previously resolved entries follow.
- COMPOUND: "O=c1oc2c3ccc4cnccc4c3[nH]c2c2ccccc12"
  GI50: "1.78 µM"
- COMPOUND: "Cc1ncc(C(=O)Nc2ccc(CN3CCN(C)CC3)c(C(F)(F)F)c2)cc1C#Cc1c(N)ncc2ccccc12"
  GI50: "0.26 µM"
- COMPOUND: "Cc1cc(N(CCCNc2ccnc3cc(Cl)ccc23)Cc2ccc3c(c2)OCO3)nc(N2CCCCC2)n1"
  GI50: "1.41 µM"
- COMPOUND: "CSc1ccc(SC2c3ccc(C)cc3Oc3nc(N)c(C#N)c(N)c32)cc1 (stereo not given)"
  GI50: "2.54 µM"
- COMPOUND: "Nc1nccc2c1ncn2C1OC(CO)C(O)C1O (stereo not given)"
  GI50: "41.6 µM"

For the 5 compounds below, give their GI50 values.
1. COc1c(Cl)ccc2c(-c3nc4cc(Cl)c(F)cc4s3)cc(=O)oc12
2. CC1(C)CC([P+](c2ccccc2)(c2ccccc2)c2ccccc2)=NN1
3. CCC1(NC(=O)c2cc(F)c(F)c(F)c2F)C(=O)NC(=O)N(C(C)C)C1=O (stereo not given)
4. C[C@@H](COCCC(=O)N1CCN(c2ncc(C(F)(F)F)cn2)CC1)Nc1cn[nH]c(=O)c1C(F)(F)F
5. COc1cc(NC(=O)NCc2ccco2)ccc1-c1ccc(NC(=O)NCc2ccco2)cc1OC

Result:
["2.2 µM", "1.2 µM", "2.98 µM", "4.04 µM", "0.458 µM"]

* * *

Assign TGI to each entry below.
Tested on: COLO 205 colon
PROTOCOL SUMMARY: NCI tumour cell line growth inhibition, 48 h

- COMPOUND: "COC(=O)c1cccc(OC)c1C#Cc1c(OC)cccc1OC"
  ASSAY SYSTEM: "COLO 205 colon"
  OUTCOME MEASURE: "TGI"
  OBS VALUE: "> 100 µM"

Would you be so kind as to report TGI for each listed record?
1. CCOC(=O)c1[nH]c2cccc3c2c1CC[C@H](NC(=O)C(F)(F)F)C3=O
2. C[C@@H](COCCC(=O)N1CCN(c2ncc(C(F)(F)F)cn2)CC1)Nc1cn[nH]c(=O)c1C(F)(F)F
3. CC1=CCC[C@H]2[C@](C)(CC3=CC(=O)C(Sc4ccccc4)=CC3=O)[C@@H](C)CC[C@]12C
4. COc1c2ccsc2c(OC)c2ccsc12
5. O=C1C(=O)N(c2nccs2)C(=O)C(=O)C1c1nc2ccccc2s1
6. CCOC(=O)C(=CN1CCNC1=S)C(=O)OCC
7. O=C(O)CNC(=O)c1ccc2cc(C(=O)N3CC(CCl)c4ccc([N+](=O)[O-])cc43)[nH]c2c1 (stereo unspecified)

Result:
1. > 100 µM
2. > 100 µM
3. 29.5 µM
4. > 100 µM
5. > 100 µM
6. > 100 µM
7. > 100 µM

Below are 6 compounds. Give each one its TGI.
1. Nc1ccc2ccc(-c3ccc[nH]3)nc2n1
2. CCC(=O)/C(=C\I)c1ccccc1
3. COC(=O)c1ccccc1C1=C([N+](=O)[O-])C(c2ccccc2)C(C#N)=C(N)O1 (stereo unspecified)
4. O=C(COc1cccc(/C=C2\Oc3ccc4ccccc4c3C2=O)c1)c1ccc(Cl)cc1
5. CCNNC(=O)[C@@H]1[C@H](c2cc(OC)c(OC)c(OC)c2)c2cc3c(cc2[C@H](O)[C@H]1CO)OCO3
6. COC(=O)[C@]12CC[C@@H](C)[C@H](C)[C@@H]1C1=CC[C@@H]3[C@@]4(C)C(C=O)=C[C@@](C)(COS(C)(=O)=O)C4[C@H](O)C[C@@]3(C)[C@]1(C)CC2 (stereo partly specified)

Result:
["> 100 µM", "3.59 µM", "> 100 µM", "> 100 µM", "0.646 µM", "3.93 µM"]

Field: TGI. Fill in for each record below.
1. COc1ccc2c(c1)CCN1CCCc3ccccc3C21 (stereo unspecified)
2. COc1ccc2c(CCNC(=O)/C=C/c3ccccc3)c(C(C)=O)[nH]c2c1[N+](=O)[O-]
3. COc1ccc2[nH]c(C(=O)N3CC(CCl)c4c3cc(N)c3ccccc43)cc2c1 (stereo unspecified)
4. Cc1ccc(C=NC23CC4CC(CC(C4)C2)C3)cc1
5. Nc1ccc(C(OC(=O)c2cc3ccccc3c(Cc3c(O)c(C(=O)OC(c4ccc(N)cc4)(c4ccc(N)cc4)c4ccc(N)cc4)cc4ccccc34)c2O)(c2ccc(N)cc2)c2ccc(N)cc2)cc1
6. NC(=Nc1ccccc1)c1ccccc1N
7. CC(C)C[C@H](NC(=O)[C@H](Cc1cccc2ccccc12)NS(=O)(=O)c1cccc2cccnc12)B(O)O

Result:
1: > 100 µM; 2: > 100 µM; 3: < 0.0167 µM; 4: > 100 µM; 5: 3.15 µM; 6: > 100 µM; 7: 3.79 µM

Please give TGI, item by item, for the list that follows.
1. O=C1/C(=C/c2ccccc2)NC(=S)N1CN1CCCCC1
2. COC12CCC(C(C(=O)c3ccccc3)=C1C(=O)c1ccccc1)C(O)C2 (stereo unspecified)
3. c1ccc(B2OCC(C3OB(c4ccccc4)OC4COB(c5ccccc5)OC43)O2)cc1 (stereo unspecified)
4. CCCC(=O)NC(Nc1ccc(F)cc1)(C(F)(F)F)C(F)(F)F
5. CC(C)CC12CC3CCC(CNC1=O)C32C (stereo unspecified)
6. N#CC[N+]1(Cc2ccccn2)CCCC1

Result:
> 100 µM
> 100 µM
> 100 µM
> 92.8 µM
> 100 µM
> 100 µM

Batch request: TGI for each of the following compounds.
1. CC1(C(=O)O)CCOc2ccccc21 (stereo unspecified)
2. CNC1=C(C(=O)OC)SC(c2ccccc2)(c2ccccc2)SC1
3. N[C@H](CCC(=O)NCP(=O)(O)O)C(=O)O
4. CCOc1ccc(/C=C2\NC(=S)N(/C=C3\C(=O)Oc4ccccc4C3=O)C2=O)cc1
5. CC(C)C(=O)[O-].CC(C)C(=O)[O-].N.N.N.N.[Co+3].[O-][Cl+3]([O-])([O-])[O-]
6. NCc1c(C(N)=O)ncn1Cc1ccccc1

Result:
1: > 100 µM; 2: > 100 µM; 3: > 100 µM; 4: 43.4 µM; 5: > 100 µM; 6: > 100 µM

Dear reader, for each entry below, please note its TGI.
1. CC12CCC(C(=Nc3cc(C(F)(F)F)cc(C(F)(F)F)c3)C1=O)C2(C)C (stereo unspecified)
2. Cc1ncc(C(=O)Nc2ccc(CN3CCN(C)CC3)c(C(F)(F)F)c2)cc1C#Cc1c(N)ncc2ccccc12
3. Cc1cc(C)c(S(=O)(=O)N(CCc2cccc(Br)c2)Cc2ccc(-c3cccc(S(C)(=O)=O)c3)cc2)c(C)c1
4. COP(=O)(O)C(N)Cc1c[nH]c2ccccc12 (stereo unspecified)
5. CN(C)CC1CCC/C(=C\c2ccc(OC(=O)/C=C/c3ccc(Cl)c(Cl)c3)cc2)C1=O (stereo unspecified)
6. O=C(NC1C2CC3CC(C2)CC1C3)/C(Cl)=C1/Sc2ccccc2NC1=O (stereo unspecified)

Result:
["34.1 µM", "0.619 µM", "> 100 µM", "> 100 µM", "3.93 µM", "> 100 µM"]

Batch request: TGI for each of the following compounds.
1. COc1c(Cl)ccc2c(-c3nc4cc(Cl)c(F)cc4s3)cc(=O)oc12
2. CCC1(NC(=O)c2cc(F)c(F)c(F)c2F)C(=O)NC(=O)N(C(C)C)C1=O (stereo unspecified)

Result:
38.3 µM
> 100 µM
